The values you see were collected from PubChem BioAssay (NCI).

assay: NCI Yeast Anticancer Drug Screen. Data for the rad14 strain (AID 159);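 further: 0% = growth of vehicle-treated control cultures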; details: S. cerevisiae rad14 strain growth inhibition; at 1.2 µM; hits give high values
Compounds without any hit were thinned out: in the full panel of roughly 79,000, 15% have a hit.
Property Label: growth inhibition (%)

>>> result("ClCCn1c(CCl)nc2ccc(Cl)cc21")
-8
>>> result("CCc1[nH]nc(C(N)=O)c1N=NN(C)C")
-1
>>> result("CCn1ncc(N=O)c1N")
-2
>>> result("COc1cc(N)ccc1Nc1c2ccccc2nc2ccccc12")
-43
>>> result("CN(Cc1cnc2nc(N)nc(N)c2n1)c1ccc(C(=O)NC(CCC(=O)O)C(=O)O)c2ccccc12 (centres undefined)")
-2
>>> result("N#C/C(=C\\c1ccccc1)c1ccccc1F")
-2
>>> result("CCNc1ccc2c(c1)C(=O)N(OS(C)(=O)=O)C2=O")
3
>>> result("COc1cc(N(C)C)ccc1/C=C\\c1ccnc2ccccc12")
-5
>>> result("O=[N+]([O-])/C(C(Cl)=C(Cl)Cl)=C1/OCCS1")
14
>>> result("CCCCCCCCCCCCCC(=O)OC(C)CCC1CCCO1 (centres undefined)")
-2
>>> result("CCOc1ccc(C(=O)CCC(=O)O)c(C)c1")
0
>>> result("Clc1c(Cl)c(Cl)c2n[nH]nc2c1Cl")
-9
>>> result("COc1cc2c(cc1C[N+](C)(C)CSc1ccccc1)-c1ccccc1CC2")
-12
>>> result("CC1CCC2(C(=O)O)CCC3(C)C(=CCC4C5(C)CC(O)C(O)C(C)(CO)C5C(O)CC43C)C2C1C (centres undefined)")
-13
>>> result("OC(CN1CCCCC1)c1cc(Cl)c(Cl)c(Cl)c1 (centres undefined)")
9
>>> result("CCc1nc(N)nc(N)c1-c1ccc(NCCCCCCN)c([N+](=O)[O-])c1")
4
>>> result("Nc1cc(F)cc2c1-c1ccc(F)cc1C2")
4
>>> result("O=C(NC(=S)Nc1ccccn1)c1ccccc1")
-30
>>> result("Cn1c2nc3ccccc3c-2nc2ccccc21")
8
>>> result("Cc1cc(Cl)ccc1NC(=O)/C(Cl)=C1/Sc2ccccc2NC1=O")
1
>>> result("COc1cc(CNc2ccc(C(C)C)cc2)cc(OC)c1OC")
-6
>>> result("C=C(CCCO)[C@@H]1CC[C@@](C)(O)[C@H]1C")
-51
>>> result("CNc1ccc(Cc2c[nH]c3ccccc23)cc1")
-21
>>> result("COc1ccc(N=Nc2ccc3oc(=O)c(C(=O)Nc4ccccc4)cc3c2)cc1")
4
>>> result("CC(C)(O)c1ccccc1C(c1ccccc1)c1ccccc1")
0
>>> result("CCCCCCSc1nc(COC(=O)NC)c(COC(=O)NC)n1C")
-3
>>> result("CN(C)CCNc1cccc2sc3ccc(O)cc3c(=O)c12")
-1
>>> result("O=C1C(Cl)=C(Cl)C(Cl)(Cl)C(Cl)C1(Cl)Cl (centres undefined)")
17
>>> result("O=Nn1c2ccccc2c2cc([N+](=O)[O-])ccc21")
-19
>>> result("O=C1c2ccccc2C(=O)c2cc(S(=O)(=O)Nc3ccccc3)ccc21")
-1
>>> result("CCC(C)(c1ccc(O)c(C)c1)c1ccc(O)c(C)c1")
-38
>>> result("O=Cc1coc2ccccc2c1=O")
-16
>>> result("Nc1ccc2c(=S)c3ccccc3[nH]c2c1")
4
>>> result("CCC(=O)Oc1ccc(/C=N/NC(N)=S)nc1")
1
>>> result("S=C(S)NCC1CCC(CNC(=S)S)CC1 (centres undefined)")
13
>>> result("Cc1cccc(/C=N/NC(=S)N(C)CCc2ccccn2)n1")
95
>>> result("O=c1[nH]cc(/C=N\\Nc2ccccc2)c(=O)[nH]1")
-1
>>> result("CC(=O)c1cc2c(Cl)cc(Cl)cc2oc1=O")
-19
>>> result("O=C(N/N=C\\c1c(Cl)cccc1Cl)N/N=C/c1c(Cl)cccc1Cl")
-4
>>> result("COc1cc([C@@H]2c3cc4c(cc3[C@@H](OC3OC5COC(C)OC5C(O)C3O)[C@H]3COC(=O)[C@H]23)OCO4)cc(OC)c1O (some centres undefined)")
-2
>>> result("CCCCCCCCN1C(=O)c2ccccc2C1=O")
-2
>>> result("O/N=C/C1c2ccccc2-c2ccccc21")
-1
>>> result("CN(N=O)C(=O)N[C@@H](C=O)[C@@H](O)[C@H](O)[C@H](O)CO")
-1
>>> result("CC(=O)Oc1ccc(C(=O)c2ccccc2)c(O)c1")
-24
>>> result("Cn1ncc2cc3c(Nc4ccc(Cl)cc4)cccc3nc21")
-2
>>> result("OCCNCCOc1ccc(/C(=C(/Cl)c2ccccc2)c2ccccc2)cc1")
-9
>>> result("CC[C@@]1(OC(=O)CCC(=O)O)C(=O)OCc2c1cc1n(c2=O)Cc2cc3ccccc3nc2-1")
14
>>> result("COc1cc(/C=C/c2sc3ccccc3[n+]2C)ccc1N(C)C")
-4
>>> result("Clc1nc(C(Cl)Cl)nc2sc3c(c12)CCCC3")
6

---

assay: NCI Yeast Anticancer Drug Screen. Data for the mlh1 strain (AID 171);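 further: 0% = growth of vehicle-treated control cultures of the same strain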; details: S. cerevisiae mlh1 strain growth inhibition; at 1.2 µM; hits give high values
About 79,000 compounds went through this panel and 15% of them were active in at least one assay; those are over-represented in the sample as a whole. Active and inactive are the calls of the source. Rule as the data show it: active = growth inhibition above about 70%; inactive = the rest.
Let's look at some compounds and their measured growth inhibition.
Property Label: growth inhibition

>>> result("CC1=CCCC2C1(C)CCC(C)C2(C)Cc1cc(O)ccc1O (stereo unspecified)")
"-1% (inactive)"
>>> result("Cc1ccc2c(ccc(/C=C/c3ccc(O)c4ncccc34)[n+]2C)c1")
"15% (inactive)"
>>> result("O=NN(CCCl)C(=O)NCCCl")
"-1% (inactive)"
>>> result("COC(=O)CSc1nnc(CSc2ccc(Cl)cc2)n1-c1ccccc1")
"-1% (inactive)"
>>> result("CCCCCCCCCCCCCCCCCCNC(=S)/N=C\\C1=C(O)c2ccccc2C1=O")
"-1% (inactive)"
>>> result("CC(C)(C)c1ccc(O)c(C(c2ccc([N+](=O)[O-])cc2)c2cc(C(C)(C)C)ccc2O)c1")
"12% (inactive)"

---

Let's look at some molecules and their measured growth inhibition.
assay: NCI Yeast Anticancer Drug Screen. Data for the bub3 strain (AID 167); details: S. cerevisiae bub3 mutant strain, at 5.0 µM (retest, dose inferred, filed as 0.5), hits give high values
About 79,000 compounds went through this panel and 15% of them were active in at least one assay; those are over-represented in the sample as a whole.
Property Label: growth inhibition (%)

>>> result("N#C/C(=C1C=C/C(=N/O)c2ccccc2/1)c1ccccc1")
49
>>> result("CCCCC(CC)C(=O)Oc1ccc(C(=O)c2ccccc2)c(O)c1 (stereo not drawn)")
-1
>>> result("COc1cc(N)ccc1Nc1c2ccccc2nc2ccccc12")
42
>>> result("CCOC(=O)[C@]1(Br)CC[C@@]1(Br)C(=O)OCC")
2
>>> result("CCCCCCCCCCCc1nc(N)n[nH]1")
-79
>>> result("O=Nn1c2ccccc2c2cc([N+](=O)[O-])ccc21")
19
>>> result("CCCCCCCCCCCCCCCCCCNC(=S)/N=C\\C1=C(O)c2ccccc2C1=O")
-2
>>> result("CCCc1[nH]nc(C(N)=O)c1N=NN(C)C")
-60
>>> result("COc1ccc(/C=C2\\SC(=S)N(C=C3C(=O)NC(=S)NC3=O)C2=O)cc1OC")
3
>>> result("Cn1c2nc3ccccc3c-2nc2ccccc21")
16
>>> result("O=Cc1coc2ccccc2c1=O")
2
>>> result("O=C1c2ccccc2C(=O)c2cc(S(=O)(=O)Nc3ccccc3)ccc21")
58
>>> result("N#CC(=S)Nc1cccc(Cl)c1")
26
>>> result("CC(C)c1[nH]nc(C(N)=O)c1N=NN(C)C")
-63
>>> result("Clc1nc(C(Cl)Cl)nc2sc3c(c12)CCCC3")
0
>>> result("CN(C)c1ccc(N=Nc2ccccn2)cc1")
40
>>> result("N#C/C(=C\\c1ccccc1)c1ccccc1F")
-17
>>> result("Clc1cc(-c2ccccc2)nc2ccccc12")
27
>>> result("CCN1/C(=C/c2ccc3ccccc3[n+]2CC)C=Cc2ccccc21")
42
>>> result("CC(=O)c1cc2c(Cl)cc(Cl)cc2oc1=O")
24
>>> result("CC1C(C#N)(C#N)C(C#N)=C(N)C1(Cl)[N+](=O)[O-] (stereo not drawn)")
20
>>> result("c1ccc2c(c1)Cn1c-2nc2ccccc21")
27
>>> result("COc1ccc(SCc2cc(OC)ccc2OC)cc1")
-17
>>> result("CN(N=O)c1ccc(/C=C/c2ccnc3ccccc23)cc1")
4
>>> result("N#C/C(=C/N1C(=O)/C(=C/c2ccc([N+](=O)[O-])cc2)SC1=S)c1nc2ccccc2s1")
-18
>>> result("NC(N)=N/N=C/c1cc(Cl)cc(Cl)c1O")
46
>>> result("Nc1nc(N)c2c(n1)CCC(S(=O)(=O)c1ccc3ccccc3c1)C2 (stereo not drawn)")
32
>>> result("COc1cc2c(cc1C[N+](C)(C)CSc1ccccc1)-c1ccccc1CC2")
1
>>> result("Cc1ccc2occ/c(=N\\Nc3ccccc3)c2c1")
-4
>>> result("CCCCOC(=O)CSSCC(=O)OCCCC")
56
>>> result("CCN(CC)CC(O)c1cc(-c2ccc(Cl)cc2)nc2c(-c3ccccc3)cccc12 (stereo not drawn)")
22
>>> result("CN(C)CCNc1cccc2sc3ccc(O)cc3c(=O)c12")
1
>>> result("O=C(Nc1ccc2c(c1)Cc1c-2ccc([N+](=O)[O-])c1F)C(F)(F)F")
-4
>>> result("CC1CCC2(C(=O)O)CCC3(C)C(=CCC4C5(C)CC(O)C(O)C(C)(CO)C5C(O)CC43C)C2C1C (stereo not drawn)")
16
>>> result("CN[C@@H]1C[C@H]2O[C@@](C)([C@@H]1OC)n1c3ccccc3c3c4c(c5c6ccccc6n2c5c31)C(=O)N[C@@H]4O")
30
>>> result("Nc1nc(N)c2cc(Sc3ccc4ccccc4c3)ccc2n1")
30
>>> result("O=C1C=CC(=O)N1c1ccc2c(c1)OCO2")
25
>>> result("O=C(CCc1ccccc1)ON1C(=S)C(c2ccccc2)(c2ccccc2)N=C1Sc1ccccc1")
-1
>>> result("Nc1ccc2c(c1)sc1ccccc12")
-59
>>> result("CCOP1(=O)C=C(Sc2ccc([N+](=O)[O-])cc2[N+](=O)[O-])C(C)(C)O1 (stereo not drawn)")
11
>>> result("CC(=O)CC(=O)/C=C/c1cccs1")
-1
>>> result("O=C1c2c(O)cccc2-c2nn(CCNCCO)c3ccc(NCCNCCO)c1c23")
-24
>>> result("Nc1ccc(CCl)cc1Cc1c(O)ccc2ccccc12")
3
>>> result("C/C(=N\\NC(=S)NC1CCCC1)c1ccccn1")
9
>>> result("COC(=O)c1n[nH]c(C)c1N=NN(C)CCC#N")
-71
>>> result("S=C(S)NCC1CCC(CNC(=S)S)CC1 (stereo not drawn)")
19
>>> result("Nc1cc(S(N)(=O)=O)ccc1SSc1ccc(S(N)(=O)=O)cc1N")
-21
>>> result("CCN(CC)CCNC(=O)c1nn(-c2ccc(Cl)cc2)c2c1CCc1cc(OC)ccc1-2")
8
